- Test target: Somatostatin receptor type 5 (Rattus norvegicus, UniProt P30938)
- Sequence (P30938 whole entry): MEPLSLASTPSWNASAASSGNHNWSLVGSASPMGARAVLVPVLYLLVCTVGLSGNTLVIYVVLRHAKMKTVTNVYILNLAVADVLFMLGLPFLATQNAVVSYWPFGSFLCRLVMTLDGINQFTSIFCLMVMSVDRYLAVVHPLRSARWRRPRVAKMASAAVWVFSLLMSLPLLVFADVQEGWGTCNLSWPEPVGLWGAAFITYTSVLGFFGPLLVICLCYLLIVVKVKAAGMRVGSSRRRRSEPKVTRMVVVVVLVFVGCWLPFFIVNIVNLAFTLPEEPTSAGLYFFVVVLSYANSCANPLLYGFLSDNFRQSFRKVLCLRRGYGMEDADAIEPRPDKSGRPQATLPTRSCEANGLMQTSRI
Endpoint: pKi
Give bare numbers, as −log10 of the molar value.

For orientation, consider the following solved cases.
Chemical smiles	Test target	pKi
CC(=O)N[C@H](Cc1ccc([N+](=O)[O-])cc1)C(=O)N[C@H]1CSSC[C@H](C(=O)N[C@@H](C(N)=O)[C@H](C)O)NC(=O)[C@@H](C(C)C)NC(=O)[C@H](CCCCN)NC(=O)[C@@H](Cc2c[nH]c3ccccc23)NC(=O)[C@H](Cc2ccc(O)cc2)NC1=O	Somatostatin receptor type 5 (Rattus norvegicus, UniProt P30938)	8.66
CC(=O)N[C@H](Cc1ccc([N+](=O)[O-])cc1)C(=O)N[C@@H]1CSSC[C@H](C(=O)N[C@@H](C(N)=O)[C@H](C)O)NC(=O)[C@@H](C(C)C)NC(=O)[C@H](CCCCN)NC(=O)[C@@H](Cc2c[nH]c3ccccc23)NC(=O)[C@H](Cc2ccc(O)cc2)NC1=O	Somatostatin receptor type 5 (Rattus norvegicus, UniProt P30938)	8.60
C[C@H](N)C(=O)NCC(=O)N[C@@H]1CSSC[C@@H](C(=O)O)NC(=O)[C@H](CO)NC(=O)[C@@H]([C@@H](C)O)NC(=O)[C@H](Cc2ccccc2)NC(=O)[C@@H]([C@@H](C)O)NC(=O)[C@H](CCCCN)NC(=O)[C@@H](Cc2c[nH]c3ccccc23)NC(=O)[C@H](Cc2ccccc2)NC(=O)[C@@H](Cc2ccccc2)NC(=O)[C@H](CC(N)=O)NC(=O)[C@@H](CCCCN)NC1=O	Somatostatin receptor type 5 (Rattus norvegicus, UniProt P30938)	8.30

Value of measured pKi for the entry CC(C)[C@H]1NC(=O)[C@H](CCCCN)NC(=O)[C@@H](Cc2c[nH]c3ccccc23)NC(=O)[C@H](Cc2ccc(O)cc2)NC(=O)[C@H](NC(=O)[C@@H](N)Cc2ccc([N+](=O)[O-])cc2)CSSC[C@H](C(=O)N[C@@H](C(N)=O)[C@H](C)O)NC1=O : 7.74
